target: UniProt:P03372; experiment: Degradation of ERα in T-47D cells (immunoblotting, 4 h); assay type: cell-based; parameters: host or cells: T-47D; conditions: 1nM compound
Sequence (P03372 whole entry): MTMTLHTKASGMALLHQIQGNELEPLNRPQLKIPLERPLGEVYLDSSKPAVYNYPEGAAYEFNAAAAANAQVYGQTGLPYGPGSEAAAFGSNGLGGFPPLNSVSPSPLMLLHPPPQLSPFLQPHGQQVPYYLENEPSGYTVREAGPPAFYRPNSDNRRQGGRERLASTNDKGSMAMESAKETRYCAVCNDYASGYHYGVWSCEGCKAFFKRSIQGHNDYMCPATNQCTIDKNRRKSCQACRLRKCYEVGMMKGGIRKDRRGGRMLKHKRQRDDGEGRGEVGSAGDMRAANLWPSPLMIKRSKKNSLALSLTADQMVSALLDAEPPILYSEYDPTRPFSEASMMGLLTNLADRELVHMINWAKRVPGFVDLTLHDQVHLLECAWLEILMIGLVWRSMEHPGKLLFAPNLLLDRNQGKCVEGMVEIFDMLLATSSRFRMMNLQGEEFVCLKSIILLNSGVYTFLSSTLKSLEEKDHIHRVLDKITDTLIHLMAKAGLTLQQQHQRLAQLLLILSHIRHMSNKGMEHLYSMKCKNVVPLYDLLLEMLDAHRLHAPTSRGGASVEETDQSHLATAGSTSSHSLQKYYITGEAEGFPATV
We use 30% as the dividing line for Degradation rate (%) of ERα in T-47D cells: on or above the line is 1.0, below is 0.0.

compound	target-system	assigned-category
C[C@@H]1Cc2c(ccc3[nH]ncc23)C(c2ccc(N3CCC4(CCN(C(=O)CN5CCC6(CC5)COc5c6ccc6c5CN(C5CCC(=O)NC5=O)C6=O)CC4)CC3)cn2)N1CC(F)(F)F (stereo partly drawn)	UniProt:P03372	1.0
O=C1CCC(N2Cc3cc4c(cc3C2=O)OC2(CC4)CN(C3CCN(C(=O)c4ccc([C@@H]5c6ccc(O)cc6CC[C@@H]5c5ccccc5)cc4)CC3)C2)C(=O)N1 (stereo partly drawn)	UniProt:P03372	0.0
O=C1CCC(N2Cc3cc4c(cc3C2=O)CCC2(CN(C(=O)[C@H]3CC[C@H](CN5CCN(c6ccc([C@@H]7c8ccc(O)cc8CC[C@@H]7c7ccccc7)cc6)CC5)CC3)C2)O4)C(=O)N1 (stereo partly drawn)	UniProt:P03372	1.0
N#CC1(CN2CCC3(CC2)COc2c3ccc3c2CN(C2CCC(=O)NC2=O)C3=O)CCN(C(=O)C2CCN(c3ccc([C@@H]4c5ccc(O)cc5CC[C@@H]4c4ccccc4)cc3)CC2)CC1 (stereo partly drawn)	UniProt:P03372	1.0
O=C1CCC(N2Cc3c(ccc4c3OCC43CCN(CC4CCN(c5ccc([C@@H]6c7ccc(O)cc7CC[C@@H]6c6ccccc6)cc5)CC4)CC3)C2=O)C(=O)N1 (stereo partly drawn)	UniProt:P03372	0.0
CN(C(=O)CN1CCC2(CC1)COc1c2ccc2c1C(=O)N(C1CCC(=O)NC1=O)C2=O)C1CCC2(CC1)CCN(c1ccc([C@@H]3c4ccc(O)cc4CC[C@@H]3c3ccccc3)cc1)CC2 (stereo partly drawn)	UniProt:P03372	1.0
C[C@@H]1Cc2c(ccc3[nH]ncc23)C(c2ccc(N3CCC4(CCN(CC(=O)N5CCC6(CC5)COc5c6ccc6c5CN(C5CCC(=O)NC5=O)C6=O)C4)CC3)cn2)N1CC(F)(F)F (stereo partly drawn)	UniProt:P03372	1.0
O=C1CCC(N2Cc3c(ccc4c3OCC43CCN(CC4CCC(N5CCN(c6ccc([C@@H]7c8ccc(O)cc8CC[C@@H]7c7ccccc7)cc6)CC5)CC4)CC3)C2=O)C(=O)N1 (stereo partly drawn)	UniProt:P03372	0.0
O=C1CCC(N2Cc3c(ccc4c3OCC43CCN(CCN4CCC5(CC4)CCN(c4ccc([C@@H]6c7ccc(O)cc7CC[C@@H]6c6ccccc6)cc4)CC5)CC3)C2=O)C(=O)N1 (stereo partly drawn)	UniProt:P03372	1.0
CN(C(=O)CN1CCC2(CC1)COc1cc3c(cc12)CN(C1CCC(=O)NC1=O)C3=O)C1CCC2(CC1)CN(c1ccc([C@@H]3c4ccc(O)cc4CC[C@@H]3c3ccccc3)cc1)C2 (stereo partly drawn)	UniProt:P03372	0.0
CNC(=O)[C@@H]1CC(N2CCC3(CC2)COc2c3ccc3c2CN(C2CCC(=O)NC2=O)C3=O)CCN1C1CC2(CCN(c3ccc([C@@H]4c5ccc(O)cc5CC[C@@H]4c4ccccc4)cc3)CC2)C1 (stereo partly drawn)	UniProt:P03372	1.0
O=C1CCC(N2Cc3cc4c(cc3C2=O)OC2(CC4)CN(C(=O)[C@H]3CC[C@H](CN4CCN(c5ccc([C@@H]6c7ccc(O)cc7CC[C@@H]6c6ccccc6)cc5)CC4)CC3)C2)C(=O)N1 (stereo partly drawn)	UniProt:P03372	1.0
O=C1CCC(N2Cc3c(ccc4c3OCC43CCN(CCN4CCN(c5ccc([C@@H]6c7ccc(O)cc7CC[C@@H]6c6ccccc6)cc5)CC4)CC3)C2=O)C(=O)N1 (stereo partly drawn)	UniProt:P03372	0.0
C[C@@H]1Cc2cc(O)ccc2C(c2c(F)cc(N3CCC4(CCN(CC(=O)N5CCC6(CC5)COc5c6ccc6c5CN(C5CCC(=O)NC5=O)C6=O)CC4)CC3)cc2F)N1CC(F)F (stereo partly drawn)	UniProt:P03372	1.0
CN(CC(=O)N1CC2(CCc3cc4c(cc3O2)C(=O)N(C2CCC(=O)NC2=O)C4)C1)C1CCC2(CC1)CN(c1ccc([C@@H]3c4ccc(O)cc4CC[C@@H]3c3ccccc3)cc1)C2 (stereo partly drawn)	UniProt:P03372	0.0
CN(C)C(=O)[C@H]1CC(N2CCC3(CC2)COc2c3ccc3c2CN(C2CCC(=O)NC2=O)C3=O)CCN1C1CC2(CCN(c3ccc([C@@H]4c5ccc(O)cc5CC[C@@H]4c4ccccc4)cc3)CC2)C1 (stereo partly drawn)	UniProt:P03372	1.0
O=C1CCC(N2Cc3cc4c(cc3C2=O)OC2(CC4)CN(C3CCC4(CC3)CN(c3ccc([C@@H]5c6ccc(O)cc6CC[C@@H]5c5ccccc5)cc3)C4)C2)C(=O)N1 (stereo partly drawn)	UniProt:P03372	0.0
O=C1CCC(N2Cc3c(ccc4c3OCC43CCN(C(=O)[C@H]4CC[C@@H](N(CC5CC5)C5CCN(c6ccc([C@@H]7c8ccc(O)cc8CC[C@@H]7c7ccccc7)cc6)CC5)CC4)CC3)C2=O)C(=O)N1 (stereo partly drawn)	UniProt:P03372	1.0
CN(C(=O)CN1CCC2(CC1)COc1c2ccc2c1CN(C1CCC(=O)NC1=O)C2=O)C1CCN(c2ccc([C@@H]3c4ccc(O)cc4CC[C@@H]3c3ccccc3)cc2)CC1 (stereo partly drawn)	UniProt:P03372	1.0
O=C1CCC(N2Cc3cc4c(cc3C2=O)OC2(CC4)CN(C(=O)C3CCC4(CC3)CN(c3ccc([C@@H]5c6ccc(O)cc6CC[C@@H]5c5ccccc5)cc3)C4)C2)C(=O)N1 (stereo partly drawn)	UniProt:P03372	0.0
O=C1CCC(N2Cc3c(ccc4c3OCC43CCN(C4CCN(C(=O)C5CCC6(CC5)CCN(c5ccc([C@@H]7c8ccc(O)cc8CC[C@@H]7c7ccccc7)cc5)CC6)CC4)CC3)C2=O)C(=O)N1 (stereo partly drawn)	UniProt:P03372	1.0

Origin of values: patent EP4656642A1
